Hello, the source for this data is the supplement of paper PMC6757056, in case you need it.

B1: library; a variant is named by its letters at N, in order (parent)
chain: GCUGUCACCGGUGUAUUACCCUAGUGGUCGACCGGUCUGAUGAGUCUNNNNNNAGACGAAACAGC

variants of: B1; assay: normalized RNA/DNA level with ligand (relative to sTRSVctl = 100) (log10 (% of sTRSVctl)); ligand: hypoxanthine (xanthine aptamer); higher = less ribozyme self-cleavage, higher mRNA level; conditions: ligand concentration (+) RNA-Seq: 5 mM, HEK293T, reporter: mCherry (pCS4076), ligand present: yes
Quantity: normalized RNA/DNA level with ligand (log10)
Reply with the value as a number alone.

Prompt: Please give the documented normalized RNA/DNA level with ligand (log10) of GCUGUCACCGGUGUAUUACCCUAGUGGUCGACCGGUCUGAUGAGUCUACGACAAGACGAAACAGC
Completion: 1.91

Prompt: Quick one: give measured normalized RNA/DNA level with ligand (log10) for GCUGUCACCGGUGUAUUACCCUAGUGGUCGACCGGUCUGAUGAGUCUAUAAGUAGACGAAACAGC
Completion: 1.85

Prompt: State its normalized RNA/DNA level with ligand (log10): GCUGUCACCGGUGUAUUACCCUAGUGGUCGACCGGUCUGAUGAGUCUUUGACCAGACGAAACAGC
Completion: 1.96
